measurementType: melting point

INSERT INTO results (smilesstr, result) VALUES
  ('Brc1ccc(OC2CCOCC2)cc1', '53 to 55 °C'),
  ('Cc1cc(OC(F)F)ccc1NC(=O)c1cccc([N+](=O)[O-])c1C(=O)NC(C)C', '148 to 149 °C');

Batch: melting point for all items listed.
1. C[C@@H]1N=C(c2ccccc2Cl)c2cc(I)sc2NC1=O
2. O=C(CC12CC3CC(CC(C3)C1)C2)Nc1ccccc1Cl

**A:**
["235 to 237 °C", "122 to 124 °C"]

Batch: melting point for all items listed.
1. Cc1cccc(Cl)c1C(=O)N[C@@H](Cc1ccc(NC(=O)c2c(Cl)cccc2Cl)cc1)C(=O)O
2. CCOC(=O)CCc1cn(Cc2cc(OCc3nc(-c4ccccc4)oc3C)no2)nc1OCC
3. CCOc1ccc(OCC(F)(F)F)cc1C(=O)O
4. CC(C)(C)C(=O)Nc1nc(Cl)c2ccnc-2[nH]1
5. C#CCOc1cccc(-n2c(-c3ccccc3)cc(=O)c(C)c2-c2ccccc2)c1
6. Cc1nc2ccc3c(c2o1)O[C@@H](CN[C@H]1CC[C@@H](c2c[nH]c4ccc(F)cc42)CC1)CO3

**A:**
["212 to 215 °C", "82 to 83 °C", "101 to 103 °C", "> 210 °C", "166 to 169 °C", "80 to 82 °C"]

###

Give measured melting point for each item. Keep answers brief.

# annotated cases, reported melting point shown
INSERT INTO results (molecule, measurementtype, result) VALUES
  ('COC(=O)c1ccc(S(=O)C(Cn2ccnc2)c2ccccc2OC)cc1 (centres undefined)', 'melting point', '113 to 115 °C'),
  ('Cc1cccc(NC(=O)c2cc(C#N)cc(C)n2)n1', 'melting point', '244 °C'),
  ('Cc1ccc(S(=O)(=O)NCCCC(NS(=O)(=O)c2ccc(-c3ccc(Cl)cc3)cc2)C(=O)O)cc1 (centres undefined)', 'melting point', '62 °C'),
  ('N#CC(Sc1nc2ccccc2[nH]1)c1ccccn1 (centres undefined)', 'melting point', '166 to 167 °C'),
  ('CC(=O)N1CC(=O)C2=C(C1)CN1NC(N3CCOCC3)=NC1=N2', 'melting point', '310 to 313 °C');

Batch: melting point for all items listed.
1. CNc1cc(CC(C#N)=CNc2ccccc2)cc(N(C)C)c1Cl
2. Cc1ccc(C(=O)NCc2ccc3c(c2)CN(C2CCC(=O)NC2=O)C3=O)cc1Cl (centres undefined)
3. Cc1ccc(NC(=O)c2cc(Cl)ccc2NCC2CCN(C3CCCCCC3)CC2)nc1
4. CC(C)[C@@H](Cc1ccc(C(C)(C)C)cc1)C(=O)N1C(=O)OC[C@H]1Cc1ccccc1

**A:**
1: 173 to 174 °C; 2: 229 to 231 °C; 3: 159 to 161 °C; 4: 124 °C

###

measurementType: melting point

INSERT INTO assay_data (compound, result) VALUES
  ('Cc1nn(-c2ccc(C(F)(F)F)cn2)cc1COc1cc(CO)n(C)n1', '128 to 129 °C'),
  ('COP(=O)(OC)c1cc(Oc2c(Cl)cc(C(F)(F)F)cc2Cl)ccc1[N+](=O)[O-]', '106 to 107 °C'),
  ('CC1CC(=O)NN=C1c1ccc(NC(=O)OCc2cccc(Cl)c2)cc1 (stereo not given)', '165 to 166 °C'),
  ('S=c1[nH]cnn1C1CCc2ccccc2C1 (stereo not given)', '200 °C'),
  ('CC(=O)OCC(=O)C1(O)CCC2C3CCC4=CC(=O)CCC4(C)C3=CCC21C (stereo not given)', '234 °C'),
  ('O=C(Cn1nc(Cl)nc1Cl)N1CCC(c2nc(C3=NOC(c4c(F)cccc4F)C3)cs2)CC1 (stereo not given)', '147 to 150 °C'),
  ('CCCCOCCOc1ccc(-c2ccc3c(c2)C=C(C(=O)Nc2ccc(S(=O)Cc4nccn4CCCC(=O)OCC)cc2)CCN3CC(C)C)cc1 (stereo not given)', '134 to 136 °C'),
  ('Cc1cccc(C)c1N(CCCCCCc1cccnc1)C(=O)C(C)N1C(=O)c2ccccc2C1=O (stereo not given)', '113 to 115 °C');

Batch: melting point for all items listed.
1. CN(CCN1CCOCC1)C(=O)c1ccc(COc2cccc3c2CN(C2CCC(=O)NC2=O)C3=O)cc1 (stereo not given)
2. C[Si](C)(C)c1ccc(Cl)c(Cl)c1C(=O)O

**A:**
1. 120 to 122 °C
2. 117 to 119 °C

Batch: melting point for all items listed.
1. [N-]=[N+]=Nc1ccc(S(=O)(=O)NCCc2ccc(CCO)cc2)cc1
2. COc1ccccc1OCC1SCCN1C(=O)CCl (stereo not given)
3. CC(C)CCS(=O)(=O)NC(=O)OCc1cc(OC(C)C)nn1Cc1ccc(Cl)cc1Cl
4. CCOc1cc(NCCO)c([N+](=O)[O-])cc1O
5. CC(=O)OC1CC2(C)C(C(C)=O)=CCC2C2CCC3=CC(=O)C=CC3(C)C12F (stereo not given)
6. COc1ccc(Nc2nc(NCCN(C)C)nc(NC3CCCCCC3)n2)cc1F
7. CCCN1CC[C@@H]2CC(=O)c3cc(F)ccc3[C@@H]2C1 (relative stereo)

**A:**
1. 80 to 82 °C
2. 87 to 88 °C
3. 104 to 107 °C
4. 180 °C
5. 202 to 203 °C
6. 73 to 76 °C
7. > 220 °C

Batch: melting point for all items listed.
1. O=C(O)c1cc(-c2cccc(C(F)(F)F)c2)nc(C(F)(F)F)c1
2. C=CCC(=O)NCCN1CCOc2ccc(OC)cc21

**A:**
["185 to 186 °C", "80 to 81 °C"]

Batch: melting point for all items listed.
1. CC(C)(CN)c1ccc(C(=O)Nc2cn3cc(Cl)ccc3n2)cc1
2. CCCCCCCCOc1ccc(C(=O)Oc2cc(Cl)c(Cl)cc2Cl)cc1
3. CC[C@@H](c1ccccc1)N(Cc1ccc(C(=O)OC)c(F)c1)S(=O)(=O)c1ccc(Cl)cc1
4. CC(C)=CCN1CCN(CCC(=O)N2c3ccccc3C(=O)Nc3cccnc32)CC1
5. OCCCCCCCCCCCCCCCCN(CCO)CCO
6. Cc1ccc(C2=CCC(=O)CC2)cc1

**A:**
["245 to 247 °C", "53 °C", "96 to 98 °C", "199 to 201 °C", "67.6 to 68.8 °C", "72 to 74 °C"]

Batch: melting point for all items listed.
1. CC(C)OC(=O)C(C(=O)O)=C1SCS1
2. CCCCCC(O)C1C(=O)NC(C(=O)SCC(=O)OC)(C(O)C2C=CCCC2)C1(C)O (stereo not given)
3. CCCCN(CCCC)c1nnc(N)s1
4. Oc1nc2cc(Cl)c3nccnc3c2nc1O
5. COC(=O)CCSCCCCCCCCCCCCI

**A:**
1: 123 to 124 °C; 2: 75 °C; 3: 116 to 117 °C; 4: > 300 °C; 5: 33 °C

Batch: melting point for all items listed.
1. OCc1cncn1C1CCCCC1
2. CC(=O)C1c2cccc(O)c2C(=O)c2c(O)cccc21
3. CC(C)N1CCNC(=O)c2ccc(Nc3ncc(Cl)c(N[C@@H]4CCCC[C@H]4NS(C)(=O)=O)n3)cc21

**A:**
1. 133 to 134 °C
2. 146 °C
3. 189 to 191 °C

Batch: melting point for all items listed.
1. CCOC(=O)C(C)c1csc(=Nc2ccccc2)n1C (stereo not given)
2. CCOC(=O)CCC(=O)c1ccc(CCN(CC=Cc2ccc(Cl)cc2)S(=O)(=O)c2ccc(Cl)cc2)cc1
3. CC1CSc2c(-c3ccccc3)c3ccccc3c(=O)n21 (stereo not given)
4. COc1cc2c(cc1OC)CN(CCCSc1ccc(NC(=O)c3cccc4c(=O)c5cccc(C)c5[nH]c34)cc1)CC2
5. CC(O)c1ccc(-c2ccc(OCc3ccc(Cl)cc3)cc2)cc1 (single isomer, unassigned; (+))
6. NS(=O)(=O)c1cc2cc(O)c(O)cc2s1

**A:**
1. 80 to 81 °C
2. 100 to 101 °C
3. 204 to 208 °C
4. 155 °C
5. 165 to 167 °C
6. 233 to 235 °C

**Q:** Endpoint output: melting point of C[C@]12C(=O)[C@]3(C)O[C@]3(C)C(=O)[C@H]1[C@H]1C=C[C@@H]2C1 (racemic) . Value?
**A:** 72 to 73 °C
